Measured values drawn from patent US12667572B2 for this set.

target: full-length MALT1 protein His-MALT1(1-824) (Homo sapiens); construct: full-length MALT1 protein His-MALT1(1-824); His (N); made in house; host or cells: baculovirus-infected insect cells; assay: MALT1 protease assay, Assay 2 (1 nM MALT1, Ac-LRSR-AMC substrate); format: biochemical; conditions: 1 nM MALT1, 50 μM Ac-LRSR-AMC, 2 h pre-incubation, 8 hr incubation at RT
Sequence (Q9UDY8 whole entry): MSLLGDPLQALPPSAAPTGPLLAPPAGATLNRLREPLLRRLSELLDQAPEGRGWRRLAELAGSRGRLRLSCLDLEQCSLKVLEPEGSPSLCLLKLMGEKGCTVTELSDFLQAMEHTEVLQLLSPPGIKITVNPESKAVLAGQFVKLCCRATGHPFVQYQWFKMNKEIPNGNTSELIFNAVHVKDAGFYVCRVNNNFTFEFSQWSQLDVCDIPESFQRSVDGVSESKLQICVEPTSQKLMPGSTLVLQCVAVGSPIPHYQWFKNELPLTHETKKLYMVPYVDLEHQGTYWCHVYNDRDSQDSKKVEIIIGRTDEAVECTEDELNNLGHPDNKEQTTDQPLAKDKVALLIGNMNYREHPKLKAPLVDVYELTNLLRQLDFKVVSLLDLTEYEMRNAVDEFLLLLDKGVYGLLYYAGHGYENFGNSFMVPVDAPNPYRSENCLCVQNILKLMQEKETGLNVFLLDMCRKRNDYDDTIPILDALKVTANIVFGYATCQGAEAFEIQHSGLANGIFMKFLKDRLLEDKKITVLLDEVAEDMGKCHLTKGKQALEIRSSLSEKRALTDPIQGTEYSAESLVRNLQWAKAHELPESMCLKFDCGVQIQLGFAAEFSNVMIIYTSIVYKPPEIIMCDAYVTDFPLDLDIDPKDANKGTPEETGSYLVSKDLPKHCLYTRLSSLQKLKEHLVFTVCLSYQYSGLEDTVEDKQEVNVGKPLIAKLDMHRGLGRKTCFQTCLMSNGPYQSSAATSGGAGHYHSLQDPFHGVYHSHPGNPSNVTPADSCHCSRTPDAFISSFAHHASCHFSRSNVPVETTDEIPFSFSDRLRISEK
Examples of compounds with documented IC50 follow.

compound: O=C(Nc1cnc([C@@H](O)C(F)F)c(Cl)c1)[C@H]1CC2(CCC2)c2c1cnc1cc(F)nn21 (single isomer, unassigned)
assayedSystem: full-length MALT1 protein His-MALT1(1-824) (Homo sapiens)
IC50: 100 to 1000 nM
//
compound: O=C(Nc1cnc([C@H](O)C(F)F)c(Cl)c1)[C@H]1CC2(CCC2)c2c1cnc1cc(F)nn21 (single isomer, unassigned)
assayedSystem: full-length MALT1 protein His-MALT1(1-824) (Homo sapiens)
IC50: 100 to 1000 nM

For C[C@H](O)c1cnn(-c2ncc(NC(=O)[C@H]3CC(C)(C)c4c3cnc3cc(Cl)nn43)cc2Cl)n1 (single isomer, unassigned) on full-length MALT1 protein His-MALT1(1-824) (Homo sapiens), measured IC50 was < 10 nM

For CC1(C)CC(C(=O)Nc2cnc(-n3nccn3)c(Cl)c2)c2cnn3cc(Cl)nc3c21 (single isomer, unassigned) on full-length MALT1 protein His-MALT1(1-824) (Homo sapiens), measured IC50 was < 10 nM

For O=C(Nc1cnc(-n2nccn2)c(Cl)c1)[C@@H]1CC2(CC2)c2c1cnc1cc(F)nn21 (single isomer, unassigned) on full-length MALT1 protein His-MALT1(1-824) (Homo sapiens), measured IC50 was 10 to 100 nM

For CC1(C)CC(C(=O)Nc2cc(C(F)F)c(-n3cccn3)c(=O)[nH]2)c2cnc3cc(Cl)nn3c21 (stereo not drawn) on full-length MALT1 protein His-MALT1(1-824) (Homo sapiens), measured IC50 was 10 to 100 nM

For CC1(C)CC(C(=O)Nc2cnc(OC(F)F)c(C#N)c2)c2cnc3cc(C(F)F)nn3c21 (single isomer, unassigned) on full-length MALT1 protein His-MALT1(1-824) (Homo sapiens), measured IC50 was 10 to 100 nM

For CC1(C)CC(C(=O)Nc2ccnc(C(F)(F)F)c2)c2cnc3cc(C(F)F)nn3c21 (single isomer, unassigned) on full-length MALT1 protein His-MALT1(1-824) (Homo sapiens), measured IC50 was 100 to 1000 nM

For Cc1c(F)nn2c3c(cnc12)C(C(=O)Nc1cnc(-n2nccn2)c(Cl)c1)CC3(C)C (single isomer, unassigned) [Example 113] on full-length MALT1 protein His-MALT1(1-824) (Homo sapiens), measured IC50 was ≥ 1000 nM

For C[C@@H](O)c1cnn(-c2ncc(NC(=O)[C@@H]3CC(C)(C)c4c3cnc3cc(Cl)nn43)cc2Cl)n1 (single isomer, unassigned) on full-length MALT1 protein His-MALT1(1-824) (Homo sapiens), measured IC50 was 100 to 1000 nM

For O=C(Nc1cnc(-n2nccn2)c(C(F)(F)F)c1)C1CC2(CC2)c2c1cnc1cc(Cl)nn21 (single isomer, unassigned) [Example 148] on full-length MALT1 protein His-MALT1(1-824) (Homo sapiens), measured IC50 was ≥ 1000 nM

For CC1(C)CC(C(=O)Nc2cnc(OC(F)F)c(C#N)c2)c2cnn3cc(C(F)F)nc3c21 (single isomer, unassigned) on full-length MALT1 protein His-MALT1(1-824) (Homo sapiens), measured IC50 was 10 to 100 nM
